target: KIT D816V kinase activity (KIT autophosphorylation at tyrosine 719) in HMC1.2 cells (Homo sapiens (Human), UniProt P10721, D816V/V560G); assay: HMC1.2 autophosphorylation assay (phospho-Y719 c-KIT AlphaLISA); conditions: HMC1.2 mast cell leukemia cell line (KIT V560G, D816V), 90 minutes compound; read-out: INH-KIT-PHOS-HMC1.2
Sequence (P10721 26-976 V560G/D816V): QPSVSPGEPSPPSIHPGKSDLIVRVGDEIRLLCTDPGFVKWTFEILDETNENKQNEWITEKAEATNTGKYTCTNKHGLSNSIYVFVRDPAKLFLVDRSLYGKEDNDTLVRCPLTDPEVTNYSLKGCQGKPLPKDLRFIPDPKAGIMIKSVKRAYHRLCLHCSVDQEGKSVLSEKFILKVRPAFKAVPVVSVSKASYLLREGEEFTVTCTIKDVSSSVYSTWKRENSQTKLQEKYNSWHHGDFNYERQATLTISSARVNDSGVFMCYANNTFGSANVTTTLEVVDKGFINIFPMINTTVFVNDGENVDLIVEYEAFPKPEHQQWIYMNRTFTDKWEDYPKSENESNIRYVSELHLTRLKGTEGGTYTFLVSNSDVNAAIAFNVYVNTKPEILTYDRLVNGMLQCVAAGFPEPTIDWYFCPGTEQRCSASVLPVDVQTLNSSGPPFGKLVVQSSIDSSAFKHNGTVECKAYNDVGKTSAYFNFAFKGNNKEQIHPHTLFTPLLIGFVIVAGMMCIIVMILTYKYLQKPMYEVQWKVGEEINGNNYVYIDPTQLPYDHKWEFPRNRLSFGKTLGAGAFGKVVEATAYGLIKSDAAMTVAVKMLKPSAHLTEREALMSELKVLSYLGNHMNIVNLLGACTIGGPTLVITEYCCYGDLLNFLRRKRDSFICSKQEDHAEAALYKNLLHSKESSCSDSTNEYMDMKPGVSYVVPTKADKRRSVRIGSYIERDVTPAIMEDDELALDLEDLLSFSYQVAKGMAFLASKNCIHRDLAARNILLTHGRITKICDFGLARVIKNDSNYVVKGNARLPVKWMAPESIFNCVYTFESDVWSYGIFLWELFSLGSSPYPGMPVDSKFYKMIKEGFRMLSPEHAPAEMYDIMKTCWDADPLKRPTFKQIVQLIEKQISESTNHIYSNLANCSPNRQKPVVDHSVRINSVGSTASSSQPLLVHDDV
pIC50: −log10 of the molar value.
Measured pIC50, listed per entry.

>  <compound>
Cn1cc(-c2cc3c(N4CCN(c5ncc([C@@H](CO)c6ccc(F)cc6)cn5)CC4)ncnn3c2)cn1

>  <pIC50>
> 7.30

$$$$
>  <compound>
C[C@](N)(c1ccccc1)c1cnc(N2CCN(c3ncnn4cc(-c5cn[nH]c5)cc34)CC2)nc1 (single isomer, unassigned)

>  <pIC50>
> 7.30

$$$$
>  <compound>
Cn1cc(-c2cn3ncnc(N4CCN(c5ncc([C@](C)(O)c6ccc(F)cc6)cn5)CC4)c3c2F)cn1

>  <pIC50>
5.00 to 6.00

$$$$
>  <compound>
C[C@@H]1CN(c2ncnn3cc(-c4cnn(C)c4)cc23)CCN1c1ncc(Sc2ccccc2F)cn1

>  <pIC50>
6.00 to 7.00

$$$$
